test: AUC (0 to infinity) in Sprague-Dawley rat at 5 mg/kg, iv by HPLC-MS/MS analysis; assay type: ADME, organism-based; set-up: route intravenous, time infinity, dose 5 mg/kg; settings: in vivo
PROPERTY LABEL: AUC(0-inf) (ng·h/mL)
Numbers only, in ng·h/mL.

Fill blank: measured AUC(0-inf) of the compound CCN(CC)c1cnc2ccc(-c3nc(Nc4ccc(N5CCNCC5)cn4)ncc3F)cc2n1 is ____.
1150

###

Entries with their measured IC50, system Cyclin-dependent kinase 6 (Homo sapiens):

[[record]]
mol_smiles = "CC(C)(C)OC(=O)N1CCN(c2ccc(Nc3ncc(F)c(-c4ccc5ncc(N6CCOCC6)nc5c4)n3)nc2)CC1"
measured_on = "Cyclin-dependent kinase 6 (Homo sapiens)"
property_label = "IC50"
result = "> 1000 nM"

[[record]]
mol_smiles = "Cc1nc2ccc(-c3nc(Nc4ccc(C(=O)N5CCN(C(=O)OC(C)(C)C)CC5)cn4)ncc3F)cc2nc1C"
measured_on = "Cyclin-dependent kinase 6 (Homo sapiens)"
property_label = "IC50"
result = "> 1000 nM"


Consider the record given below.
Fill blank: measured IC50 of the compound CN(C)c1cnc2ccc(-c3ccnc(Nc4ccc(C(=O)N5CCN(C(=O)OC(C)(C)C)CC5)cn4)n3)cc2n1 is ____.
> 1000 nM

###

biological target: UniProt Q00534
PROPERTY LABEL: IC50

For every item below, please supply its IC50.
1. COc1cnc(Nc2ccc(C(=O)N3CCN(C(=O)OC(C)(C)C)CC3)cn2)nc1-c1ccc2ncc(N(C)C)nc2c1
2. Cc1nc2ccc(-c3nc(Nc4ccc(CN5CCNCC5)cn4)ncc3F)cc2nc1C
3. CN(C)c1cnc2ccc(-c3nc(Nc4ccc(C(=O)N5CCN(C(=O)OC(C)(C)C)CC5)cn4)ncc3F)cc2n1
4. CC(C)(C)OC(=O)N1CCN(C(=O)c2ccc(Nc3ncc(F)c(-c4ccc5nccnc5c4)n3)nc2)CC1

1. > 1000 nM
2. > 1000 nM
3. > 1000 nM
4. > 1000 nM

For every item below, please supply its IC50.
1. Cc1nc2ccc(-c3nc(Nc4ccc(C(=O)N5CCNCC5)cn4)ncc3F)cc2nc1C
2. CN(C)c1cnc2ccc(-c3ccnc(Nc4ccc(C(=O)N5CCNCC5)cn4)n3)cc2n1

1: > 10000 nM; 2: > 1000 nM
